- Tested on: CCRIS mutagenicity, Ames/micronucleus/aberration tests
- procedure_details: CCRIS mutagenicity studies
- assay_context: Test System: AMES SALMONELLA TYPHIMURIUM; Strain/Indicator: TA1538; Metabolic Activation: RAT, LIVER, S-9; Method: STANDARD PLATE
Activity calls are given as the source filed them. The rule behind the calls is not given here.
result_type: mutagenic call

| mol_smiles | observed_result |
| --- | --- |
| O=NO | inactive; negative |
| CCC(=O)Oc1ccc(/C(CC)=C(\CC)c2ccc(OC(=O)CC)cc2)cc1 | inactive; negative |
| C1O[C@@H]1[C@@H]1CO1 | inactive; negative |

----------
- Test system: CCRIS mutagenicity, Ames/micronucleus/aberration tests
- procedure_details: CCRIS mutagenicity studies
- assay_context: Test System: AMES SALMONELLA TYPHIMURIUM; Strain/Indicator: TA100; Metabolic Activation: RAT, LIVER, S-9, PHENOBARBITAL AND 5,6-BENZOFLAVONE; Method: PREINCUBATION
- Text: The CCRIS database contains chemical records with carcinogenicity, mutagenicity, tumor promotion, and tumor inhibition test results. It was developed by the National Cancer Institute (NCI). Data are derived from studies cited in primary journals, current awareness tools, NCI reports, and other sources. Test results have been reviewed by experts in carcinogenesis and mutagenesis. CCRIS provides historical information from the years 1985 - 2011. It is no longer updated. […]
Active and inactive are the calls of the source. The rule behind the calls is not given here.
Classes used: active, inactive

| molecule | classification |
| --- | --- |
| NC1=CC(=O)C(=O)c2ccccc21 | active |
| Fc1cnc2c(ccc3ncc(F)cc32)c1 | inactive |
| Cc1c(N=[N+]([O-])c2cccc([N+](=O)[O-])c2C)cccc1[N+](=O)[O-] | inactive |
| Fc1cc2cccnc2c2cccnc12 | active |
| Cc1ccc2ccccc2n1 | active |
| Fc1cnc2c(c1)cc(F)c1ccccc12 | inactive |
| Fc1ccc(F)c2c1ccc1ncccc12 | active |
| OC(O)C(Cl)(Cl)Cl | inactive |
| Fc1ccc(F)c2ncccc12 | active |
| c1ccc2c(c1)ccc1ncccc12 | active |
| CC(=O)Nc1cccc2cccnc12 | active |
| COc1cc(O)c2c(=O)c3cc(OC)ccc3oc2c1 | active |
| COC1=C(OC)C(=O)C(C)=CC1=O | inactive |
| CC(=O)Oc1cc(C=O)cc2c1C(COC(N)=O)C1(OC(C)=O)ON2CC2C1N2C(C)=O (configuration not stated) | inactive |
| N#CC(Cl)Cl | active |
| Cc1c(N=O)cccc1[N+](=O)[O-] | inactive |
| Fc1cnc2ccc3cccnc3c2c1 | active |
| COc1cc(O)c2c(=O)c3c(O)ccc(O)c3oc2c1 | inactive |
| Clc1ccc2ccccc2n1 | inactive |
| C=C1/C(=C\C=C2/CCC[C@]3(C)[C@@H]([C@H](C)CC[C@@H](O)C(C)C)CC[C@@H]23)C[C@@H](O)C[C@@H]1O | inactive |
| O=C(O)C(=O)C(=O)O | inactive |
| CC(C)=CCC1=C(O)c2ccccc2C(=O)C1=O | inactive |

----------
- Test system: CCRIS mutagenicity, Ames/micronucleus/aberration tests
- procedure_details: CCRIS mutagenicity studies
- assay_context: Test System: AMES SALMONELLA TYPHIMURIUM; Strain/Indicator: TA1535; Metabolic Activation: NONE; Method: GAS EXPOSURE
Calls of active or inactive are those of the source. How the calls were made is not given here.
Labels: true = active, false = inactive

| mol_smiles | target_desc | classification |
| --- | --- | --- |
| ClCCl | CCRIS mutagenicity, Ames/micronucleus/aberration tests | true |
| FC(Cl)(Cl)Cl | CCRIS mutagenicity, Ames/micronucleus/aberration tests | false |
| C=C(C)C | CCRIS mutagenicity, Ames/micronucleus/aberration tests | false |
| C#CC | CCRIS mutagenicity, Ames/micronucleus/aberration tests | false |

----------
- Test system: CCRIS mutagenicity, Ames/micronucleus/aberration tests
- procedure_details: CCRIS mutagenicity studies
- assay_context: Test System: AMES SALMONELLA TYPHIMURIUM; Strain/Indicator: TA100; Metabolic Activation: RAT, LIVER, S-9, PCB; Method: PREINCUBATION
Active and inactive are the calls of the source. No rule for the calls is given here.
Possible outcomes: 1.0 for active, 0.0 for inactive

| compound | target_desc | classification |
| --- | --- | --- |
| C=C1C[C@@]23CC[C@H]4[C@@](C)(CCC[C@@]4(C)C(=O)O[C@@H]4O[C@H](CO)[C@@H](O)[C@H](O)[C@H]4O)[C@@H]2CC[C@]1(O[C@@H]1O[C@H](CO)[C@@H](O)[C@H](O)[C@H]1O[C@@H]1O[C@H](CO)[C@@H](O)[C@H](O)[C@H]1O)C3 | CCRIS mutagenicity, Ames/micronucleus/aberration tests | 0.0 |
| Clc1nncc2ccccc12 | CCRIS mutagenicity, Ames/micronucleus/aberration tests | 0.0 |
| CCSc1cc(Cc2ccc(N)c(SCC)c2)ccc1N | CCRIS mutagenicity, Ames/micronucleus/aberration tests | 1.0 |
| Cc1cc(C)cc(NO)c1 | CCRIS mutagenicity, Ames/micronucleus/aberration tests | 1.0 |
| Nc1ncnc2c1ncn2Cc1ccc([N+](=O)[O-])cc1 | CCRIS mutagenicity, Ames/micronucleus/aberration tests | 0.0 |
| CC(C)(C)C(=O)C(Oc1ccc(Cl)cc1)n1ccnc1 (configuration not stated) | CCRIS mutagenicity, Ames/micronucleus/aberration tests | 0.0 |
| Nc1ccc(Oc2ccccc2)cc1 | CCRIS mutagenicity, Ames/micronucleus/aberration tests | 1.0 |
| NCCNCCN | CCRIS mutagenicity, Ames/micronucleus/aberration tests | 0.0 |
| [N-]=[N+]=NCc1ccccc1 | CCRIS mutagenicity, Ames/micronucleus/aberration tests | 1.0 |
| Cc1nc2ccc(N)c(C)c2nc1C | CCRIS mutagenicity, Ames/micronucleus/aberration tests | 1.0 |
| [N-]=[N+]=NC[C@H](O)c1ccccc1 | CCRIS mutagenicity, Ames/micronucleus/aberration tests | 1.0 |
| Clc1nncc2ccncc12 | CCRIS mutagenicity, Ames/micronucleus/aberration tests | 0.0 |

----------
- Test system: CCRIS mutagenicity, Ames/micronucleus/aberration tests
- procedure_details: CCRIS mutagenicity studies
- assay_context: Test System: CHINESE HAMSTER V-79; Strain/Indicator: V-79 (HGPRT)/6-THIOGUANINE; Metabolic Activation: NONE
The source made the active and inactive calls. No rule for the calls is given here.
Outcomes: 1 (yes) = active, 0 (no) = inactive

| compound | classification |
| --- | --- |
| CCOS(C)(=O)=O | 1 (yes) |
| Brc1cc(Br)c(-c2cc(Br)c(Br)cc2Br)cc1Br | 0 (no) |
| O=C1c2cccc(O)c2C(=O)c2c(O)cc(CO)cc21 | 0 (no) |
| CCN(CC)c1ccc(N=Nc2ccc([N+](=O)[O-])cc2)cc1 | 0 (no) |
| CC[C@]1(O)CC2CN(CCc3c([nH]c4ccccc34)[C@@](C(=O)OC)(c3cc4c(cc3OC)N(C=O)[C@H]3[C@@](O)(C(=O)OC)[C@H](OC(C)=O)[C@]5(CC)C=CCN6CC[C@]43[C@@H]65)C2)C1 (some centres undefined) | 0 (no) |
| Oc1ccc(O)c(-c2ccccc2)c1 | 0 (no) |
| CCN(CC)CCCNc1ccc2ncn3c4ccc(O)cc4c(=O)c1c23 | 1 (yes) |
| CCN(CC)CCCNc1ccc2nc(C)n3c4ccc(O)cc4c(=O)c1c23 | 1 (yes) |
| Brc1cc(-c2cc(Br)c(Br)c(Br)c2)cc(Br)c1Br | 0 (no) |

----------
- System: CCRIS mutagenicity, Ames/micronucleus/aberration tests
- procedure_details: CCRIS mutagenicity studies
- assay_context: Test System: AMES SALMONELLA TYPHIMURIUM; Strain/Indicator: TA100; Metabolic Activation: NONE; Method: STANDARD PLATE
Active and inactive are the calls of the source. No rule for the calls is given here.
Classes used: 1 (active), -1 (inactive)

| compound | target_desc | classification |
| --- | --- | --- |
| Nc1ccc(-c2ccc(N)c(Cl)c2)cc1Cl | CCRIS mutagenicity, Ames/micronucleus/aberration tests | -1 |
| COP(=S)(OC)SCC(=O)N(C)C=O | CCRIS mutagenicity, Ames/micronucleus/aberration tests | -1 |
| c1cc(OCC2CO2)c2sncc2c1 (configuration not stated) | CCRIS mutagenicity, Ames/micronucleus/aberration tests | 1 |
| c1ccc2c(c1)cc1c3c2ccc2cccc(c23)C2OC12 (configuration not stated) | CCRIS mutagenicity, Ames/micronucleus/aberration tests | 1 |
| C1CCC2CCCCC2C1 (configuration not stated) | CCRIS mutagenicity, Ames/micronucleus/aberration tests | -1 |
| C#CCOCCn1cc[n+](C)c1/C=N/O | CCRIS mutagenicity, Ames/micronucleus/aberration tests | -1 |
| O=CNc1nc(-c2ccc([N+](=O)[O-])o2)cs1 | CCRIS mutagenicity, Ames/micronucleus/aberration tests | 1 |
